meta.source: PubChem BioAssay AID686978

assay: qHTS for Inhibitors of human tyrosyl-DNA phosphodiesterase 1 (TDP1): qHTS in cells in absence of CPT; settings: DT40 Tdp1-/- hTDP1 cells, no CPT, ATP luminescence, 48 h; note: nearly all actives have a fitted effect of over 55% in size
The whole screen tested about 420,000 compounds, of which about 64,000 (15%) were called active. Not shown: some 27% with an inconclusive outcome. Calls come from the whole dose curve; as a rule, active = well fitted inhibition curve with a large enough effect; inconclusive = small, poorly fitted or top-dose-only effect; inactive = flat fitted curve, though single readings scatter. These entries were drawn from the full list. Peptide text beside a SMILES is read from it.
// one of YES = active, NO = inactive, no free text

For orientation, consider the following solved cases.
compound: CCCCn1nnnc1C1(C)CCC(=O)N1Cc1ccc(OC)c(OC)c1 (stereo not given)
class: NO
//
compound: CC(C)CN(CC(C)C)CC(O)CN(c1ccccc1)S(=O)(=O)c1ccccc1[N+](=O)[O-] (stereo not given)
class: YES
//
compound: COc1ccc(C2=NN(C(=O)CCC(=O)O)C(c3cccs3)C2)cc1OC (stereo not given)
class: NO
//
compound: CC(C)C[C@@H](NC(=O)[C@H]1CCCN1C(=O)Cc1ccccc1)C(N)=O (HELM PEPTIDE1{[O=C(Cc1ccccc1)[*:2]].[dP].[dL].[am]}$$$$V2.0)
class: NO
//
compound: O=C(Nc1c(Br)cc2c(c1Br)Cc1ccccc1-2)C(F)(F)F
class: NO
//
compound: O=C(NCc1ccccc1)C1=C[C@@H](C2CCCCC2)C[C@@H](OCc2ccc(CO)cc2)O1
class: YES
//
compound: CCOc1cc(NC(=O)CCl)c(OCC)cc1NC(C)=O
class: YES
//
compound: COc1ccc(C2C(C#N)=C(/N=C/N3CCOCC3)OC3=C2C(=O)CC(C)(C)C3)cc1OC (stereo not given)
class: NO
//
compound: COc1cc(C(=O)N2C(=O)c3cccc(N)c3C2=O)cc(OC)c1OC
class: NO

Incoming: How was CCOc1cc(CN2CCN(C(=O)CC(C)C)CC2)ccc1OC classified in this test?
Outgoing: NO

----------
assay: qHTS for Inhibitors of human tyrosyl-DNA phosphodiesterase 1 (TDP1): qHTS in cells in absence of CPT; settings: DT40 Tdp1-/- hTDP1 cells, no CPT, ATP luminescence, 48 h; note: nearly all actives have a fitted effect of over 55% in size
About 64,000 (15%) of roughly 420,000 compounds were called active. Another 27% or so got no clear call; they are omitted. The list is a sample of the results.

compound: O=C(Nc1cc(C(F)(F)F)ccc1Cl)c1cc(C2CC2)on1
outcome: inactive
//
compound: COc1ccc(CNC(=O)COC(=O)C(CCSC)N2C(=O)c3ccccc3C2=O)cc1 (stereo not drawn)
outcome: inactive
//
compound: O=C(CN1C(=O)NC2(CCc3ccccc32)C1=O)NC1CCCCC1 (stereo not drawn)
outcome: inactive

----------
assay: qHTS for Inhibitors of human tyrosyl-DNA phosphodiesterase 1 (TDP1): qHTS in cells in absence of CPT; conditions: DT40 Tdp1-/- hTDP1 cells, no CPT, ATP luminescence, 48 h; note: nearly all actives have a fitted effect of over 55% in size; note: potency is the fitted concentration of half-maximal effect
Among all 420,000 compounds or so, about 64,000 (15%) were called active. Inconclusive results (about 27%) are left out. These entries were drawn from the full list.
test_readout: Potency

compound: Cc1ccc(N(C(=O)Cc2cccs2)C2C=CS(=O)(=O)C2)cc1Cl (configuration not stated)
Potency: inactive
//
compound: COc1ccc(-c2nc3ccccc3c(=O)n2CCc2ccc(O)cc2)cc1
Potency: 9.2 µM (active)
//
compound: CN(C)c1ccc(-n2cccc2/C=N/n2cnnc2)cc1
Potency: inactive
//
compound: Cc1nnc(SCc2cc(=O)c3cc(F)ccc3[nH]2)n1C
Potency: inactive
//
compound: Cc1ccc2cc(CCNC(=O)c3c(-c4ccccc4Cl)noc3C)c(=O)[nH]c2c1
Potency: 18.4 µM (active)
//
compound: CC(C)C(=O)OCC(=O)Nc1ccc2c(c1)CCC2
Potency: inactive

Incoming: What measured Potency goes with COc1ccc(-c2ccc(CCC(=O)O)n2-c2ccc(O)cc2)cc1 ?
Outgoing: inactive
